Assay info: NOVARTIS: Cytotoxicity against human hepatocellular carcinoma cell line (Huh7)
Format: toxicity, cell-based, Huh-7
Experimental parameters: Huh7 cells (hepatocellular carcinoma cell line)

Molecule: O=C(NCCCN1CCCC1=O)c1cccn2c(=O)c3ccc(Cl)cc3nc12
CC50: > 10 µM

Molecule: CCCCCN(CC(=O)Nc1cc(C(C)(C)C)nn1-c1ccc(Cl)c(Cl)c1)C(=O)c1cccc(OC)c1
CC50: > 10 µM

Molecule: CCC(=O)Oc1ccccc1-c1nc2ccccn2c1NC(C)(C)CC(C)(C)C
CC50: 1.65 µM

Molecule: COc1ccc(C2C3=C(O)CC(C)(C)CC3=Nc3[nH]nc(C)c32)cc1 (stereo not given)
CC50: > 100 µM

Molecule: CC(CCCO)Nc1ccnc2cc(Cl)ccc12 (stereo not given)
CC50: > 10 µM

Molecule: CS(=O)(=O)Nc1cccc(-c2cnc(N)c(-c3ccc(C(=O)N4CCOCC4)cc3)n2)c1
CC50: > 10 µM

Molecule: CC1=CC(=C(C#N)c2nc3ccccc3s2)C=C(C)N1CC1CCCO1 (stereo not given)
CC50: > 100 µM

Molecule: CS[C@H]1SC[C@H]2C(=O)N(C)[C@@H](C(C)C)C(=O)OC[C@@H](NC(=O)c3cnc4ccccc4n3)C(=O)N[C@@H](C)C(=O)N(C)[C@@H]1C(=O)N(C)[C@@H](C(C)C)C(=O)OC[C@@H](NC(=O)c1cnc3ccccc3n1)C(=O)N[C@@H](C)C(=O)N2C
CC50: > 10 µM

Molecule: Oc1nnc(SCc2nc3ccccc3s2)n1Cc1ccco1
CC50: > 10 µM

Molecule: Oc1c(C(Nc2ccccn2)c2cccc(Oc3ccccc3)c2)ccc2cccnc12 (stereo not given)
CC50: 62.8 µM

Molecule: Cc1ccc(S(=O)(=O)c2c(COC(=O)c3cccc(C)c3)c(-c3ccccc3)nn2C)cc1
CC50: > 100 µM

Molecule: CC(=NNC(=S)NN)c1ccccn1
CC50: > 10 µM

Molecule: COc1ccc(Nc2nc(NN=Cc3cccc([N+](=O)[O-])c3)nc(Nc3ccc([N+](=O)[O-])cc3)n2)cc1
CC50: > 100 µM

Molecule: O=C(c1ccccc1)C1NC1c1ccc(Br)cc1 (stereo not given)
CC50: > 100 µM

Molecule: CCOC(=O)C1=C(C)N/C(=C\c2cc(C)n(-c3ccc(C)cc3C)c2C)C1=O
CC50: > 10 µM

Molecule: CCOc1ccc2[nH]c(=O)c(CN(CCN3CCCC3)C(=S)Nc3ccc(F)cc3)cc2c1
CC50: > 100 µM

Molecule: CCCCNc1cc(C)nc(NCc2ccccc2)n1
CC50: > 10 µM

Molecule: Cc1cnc(NC(=O)Nc2ccc(-c3ccc(NC(=O)Nc4ncc(C)s4)c(C)c3)cc2C)s1
CC50: > 10 µM

Molecule: COC(=O)c1ccc(C2C3=C(O)CC(c4ccco4)CC3=Nc3ccccc3N2C(=O)c2ccccc2)cc1 (stereo not given)
CC50: > 100 µM

Molecule: O=C(Nc1ccc(Br)cn1)c1ccc(Oc2cc(Oc3cccc(Cl)c3)cc([N+](=O)[O-])c2)cc1
CC50: > 10 µM

====

System: Plasmodium falciparum
Assay info: NOVARTIS: Inhibition of Plasmodium falciparum W2 (drug-resistant) proliferation in erythrocyte-based infection assay
Type: functional, organism-based
Experimental parameters: Plasmodium falciparum, W2; read-out: EC50
pEC50: −log10 of the molar value.
Please use 1.0 whenever pEC50 is not below 6, and 0.0 whenever it is.

Compound: COc1ccccc1-n1c(C(C)N(C)C(=O)Nc2ccccc2F)nc2ccccc2c1=O (centres undefined)
Category label: 1.0
--
Compound: CCOc1ccc2[nH]c(=O)c(CN(CCN3CCCC3)C(=S)Nc3ccc(F)cc3)cc2c1
Category label: 0.0
--
Compound: CCCCCCCC(=O)N(C)CCCNc1ccnc2cc(Cl)ccc12
Category label: 1.0
--
Compound: CC(=O)c1ccc(NC(=O)CN(C)S(=O)(=O)c2ccc3[nH]c4c(c3c2)CCCC4)cc1
Category label: 0.0
--
Compound: COCCNC(=O)[C@@H]1C[C@@H](NCCC2=C(C)CCCC2(C)C)CN1C(C)C
Category label: 0.0
--
Compound: CCC(C)NC(=O)c1cc(NC(=O)/C=C/c2ccc([N+](=O)[O-])cc2)ccc1N1CCN(c2ccccc2OC)CC1 (centres undefined)
Category label: 1.0
